TEST METHOD NOTES: Efflux ratio in dog MDCK cells
Type: ADME, cell-based, Canis lupus familiaris
QUANTITY MEASURED: efflux ratio
Form field (numeric): enter value without unit.

What measured efflux ratio goes with CCC[C@H]1NC(=O)c2cccnc2OCCOCCN(C2CCCC2)CC2CCN(CC2)C1=O ?
5.4

* * *

TEST METHOD NOTES: Solubility of compound at pH 7.4
Format: physicochemical
CONDITION NOTES: buffer
Response key: fulfilled means solubility >= 200 µM; not fulfilled means solubility < 200 µM.

Solved entries:
| SMI | ANSWER LABEL |
| --- | --- |
| C=CCOc1ccccc1CN(CC(=O)N1CCC(CC(=O)NC2CC2)CC1)C1CCN(C)CC1 | fulfilled |
| C=CCOc1ccccc1CN(CC(=O)N1CCC(CC(=O)NC2CC2)CC1)C(C)C | not fulfilled |
| C=CCOc1ccccc1CN(CC(=O)N1CCC(CC(=O)NC2CC2)CC1)C1CCCC1 | not fulfilled |
| CCC[C@@H](NC(=O)c1cccnc1OC)C(=O)N1CCC(CCN(CCOC)C2CCN(C)CC2)CC1 | fulfilled |
| CCOc1ccccc1C(=O)N1CCN(C2CCCC2)C[C@@H]1C(=O)NC[C@@H]1CCCCO1 | not fulfilled |

Determine whether this compound has solubility no lower than 200 µM: CCOc1ccccc1C(=O)N1CCN(Cc2ccccc2)C[C@@H]1C(=O)NC[C@@H]1CCCCO1
fulfilled

Does solubility meet or surpass 200 µM for CCC[C@H]1NC(=O)c2cccnc2OCCOCCN(C2CCCC2)CC2CCN(CC2)C1=O ?
fulfilled

Determine whether this compound has solubility no lower than 200 µM: C=CCOc1ccccc1CN(CC(=O)N1CCC(CC(=O)NC2CC2)CC1)Cc1ccccc1
not fulfilled

Would you say CCOc1ccccc1C(=O)N1CCN(C2CCCC2)C[C@@H]1C(=O)NC[C@H]1CCCCO1 shows solubility at minimum 200 µM?
fulfilled

Answer whether solubility of CCOc1ccccc1C(=O)N1CCN(Cc2ccccc2)C[C@@H]1C(=O)NC[C@H]1CCCCO1 is greater than or equal to 200 µM.
fulfilled

* * *

Item-by-item account of Papp
TEST METHOD NOTES: Apparent permeability across apical to basolateral side in MDCK cells
Type: ADME, cell-based, Canis lupus familiaris
CONDITION NOTES: dog

Example results:
| SMI | OBSERVED MEASUREMENT |
| --- | --- |
| C=CCOc1ccccc1CN(CC(=O)N1CCC(CC(=O)NC2CC2)CC1)Cc1ccccc1 | 8 10^-6 cm/s |
| CCOc1ccccc1C(=O)N1CCN(Cc2ccccc2)C[C@@H]1C(=O)NC[C@H]1CCCCO1 | 32 10^-6 cm/s |
| C=CCOc1ccccc1CN(CC(=O)N1CCC(CC(=O)NC2CC2)CC1)C1CCCC1 | 3 10^-6 cm/s |

GET /values?readout=Papp&item= CCOc1ccccc1C(=O)N1CCN(C2CCCC2)C[C@@H]1C(=O)NC[C@H]1CCCCO1
32 10^-6 cm/s

* * *

TEST METHOD NOTES: Efflux ratio in dog MDCK cells
Format: ADME, cell-based, Canis lupus familiaris
Mark yes (1) only for Ratio values smaller than 30; exact matches and larger values are no (0).

| SMI | ANSWER LABEL |
| --- | --- |
| CCOc1ccccc1C(=O)N1CCN(Cc2ccccc2)C[C@@H]1C(=O)NC[C@H]1CCCCO1 | no (0) |
| CCOc1ccccc1C(=O)N1CCN(C2CCCC2)C[C@@H]1C(=O)NC[C@@H]1CCCCO1 | yes (1) |
| C=CCOc1ccccc1CN(CC(=O)N1CCC(CC(=O)NC2CC2)CC1)C1CCN(C)CC1 | yes (1) |
| CCOc1ccccc1C(=O)N1CCN(Cc2ccccc2)C[C@@H]1C(=O)NC[C@@H]1CCCCO1 | yes (1) |
| C=CCOc1ccccc1CN(CC(=O)N1CCC(CC(=O)NC2CC2)CC1)C(C)C | yes (1) |

Alright, here's another compound for you.
Dear colleague, could you confirm whether Ratio of CCC[C@@H](NC(=O)c1cccnc1OC)C(=O)N1CCC(CCN(CCOC)C2CCN(C)CC2)CC1 falls below 30? Thanks.
no (0)
